# Target of assay: UniProtKB P35372
# Sequence (P35372 whole entry): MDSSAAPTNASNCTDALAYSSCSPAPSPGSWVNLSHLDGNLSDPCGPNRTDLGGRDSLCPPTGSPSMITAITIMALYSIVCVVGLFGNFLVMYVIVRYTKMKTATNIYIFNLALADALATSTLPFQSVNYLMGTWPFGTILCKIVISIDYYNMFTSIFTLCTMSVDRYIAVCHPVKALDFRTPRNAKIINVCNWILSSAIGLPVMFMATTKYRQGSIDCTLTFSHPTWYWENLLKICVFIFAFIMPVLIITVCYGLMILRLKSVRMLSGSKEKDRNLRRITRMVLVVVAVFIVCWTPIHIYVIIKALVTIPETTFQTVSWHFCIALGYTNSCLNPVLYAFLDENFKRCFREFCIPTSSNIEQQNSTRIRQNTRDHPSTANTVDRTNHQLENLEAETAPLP
# Test description: hMOP receptor binding assay (SPA)
# Condition: Ki; displacement of [3H]naloxone, hMOP receptor membranes; read-out: hMOP Ki [nM] or % inhibition at 1 μM
Endpoint label: Ki (nM)
Respond numerically; units are nM and should not be typed.

Use these answered entries as a reference point.
In [3]: df
Out[3]:
                                smiles_code  measurement
0  CN(C)[C@]1(c2cccc(F)c2)C[C@@]2(CN(CCS(C)(=O)=O)C(=O)N2CC2CC2)C1          150
1  Cc1cc(C#N)ncc1N1C[C@]2(C[C@](c3cccc(F)c3)(N(C)C)C2)N(CC2CC2)C1=O         1330
2  CN(C)[C@]1(c2ccccc2)C[C@]2(CN(CC(=O)N3CCS(=O)(=O)CC3)C(=O)N2CC2CCC2)C1            2

For "CN(C)[C@]1(c2cccc(F)c2)C[C@@]2(CN(CCC3COC3)C(=O)N2CC2CC2)C1" , write its Ki.
44

For "CN(C)[C@]1(c2cccc(F)c2)C[C@@]2(CN(CC3(O)CCC3)C(=O)N2CC2CC2)C1" , write its Ki.
125

For "CN(C)[C@]1(c2cccc(F)c2)C[C@@]2(CN(Cc3ccc(N4CCOCC4)cc3)C(=O)N2)C1" , write its Ki.
465

Source: patent US10738015B2
